experimental system: D2 dopamine receptors (Homo sapiens)
Sequence (P14416 whole entry): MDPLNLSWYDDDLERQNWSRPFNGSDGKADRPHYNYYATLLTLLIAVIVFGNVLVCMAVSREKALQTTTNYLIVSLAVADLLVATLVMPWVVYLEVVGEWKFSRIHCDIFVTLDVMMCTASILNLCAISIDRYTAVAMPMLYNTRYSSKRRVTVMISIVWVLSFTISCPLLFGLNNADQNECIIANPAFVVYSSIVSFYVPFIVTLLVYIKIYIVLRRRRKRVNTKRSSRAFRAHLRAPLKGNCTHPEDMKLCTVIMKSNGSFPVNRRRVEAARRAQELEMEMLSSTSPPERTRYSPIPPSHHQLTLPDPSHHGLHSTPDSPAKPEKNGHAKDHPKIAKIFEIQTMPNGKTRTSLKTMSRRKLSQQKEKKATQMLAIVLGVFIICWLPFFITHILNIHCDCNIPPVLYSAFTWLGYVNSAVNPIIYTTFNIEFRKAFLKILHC
assay notes: Competition radioreceptor assay, D2 dopamine receptors
cond: 90 minute incubation; (+)-butaclamol (0.25 μM) defining nonspecific binding; read-out: KD of radioligand
measurement kind: pKd
Worth noting: pKd values are minus log10 of concentrations stated in mol/L.

Per the record, CN1CCc2cc(Cl)c(O)cc2C(c2ccccc2)C1 (stereo not shown) [[^3H]SCH23390] has pKd of 9.47
